Reported Kd is given for each of the following binders.
- tested_on: T1, recombinant His-tagged cynomolgus PD-1 (Acro Biosystems) (cynomolgus, UniProt B0LAJ3 25-170)
- T1 construct: His-tagged; also called Cyno PD-1; not shown: His tag (and any linker) of the Acro Biosystems product
- experiment_notes: SPR Carterra LSA;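 further: antibodies or fusion proteins amine-coupled on an HC30M chip, soluble His-tagged human or cynomolgus PD-1 titrated over them, non-regenerative kinetics, constants fitted from titration curves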

binder: G12-hIgG4 (antibody, V domains shown) VH: DSLVESGGGLVQPGGSLRLSCAASGFTFDISAMSWVRQAPGKGLEWVSTISGSAYSTYYADSVKGRFTISRDNSKSTLYLQMNSLRAEDTAVYYCAREIFSDYWGLGTLVTVSS VL: QSVLTQPPSASGTPGQRVTISCSGSTSNIGRESVYWYQQLPGTAPKLLIYLNSQRPSGVPDRFSGSKSGTSASLAISGLQSEDVADYYCGTWDDSLNGWVFGGGTKLTVLG
unit_descriptor: nM
Kd: 754
//
binder: OMC476pH10-hIgG4 (antibody, V domains shown) VH: DVQLVESGGGVVRPGGSLRLSCAASGFTFSIYAVSWVRQAPGEGLEWVSHISASGGSTYYADSVKGRFAISRDNSKNTLYLQMNSLRAEDTAVYYCTTNLGSDYWGLGTLVTVSS VL: QSVLTQPPSASGTPGQRVTISCSGSYSDIGTNYVYWYQQLPGTAPKLLIFATDRRPSGVPDRFSGSKSGTSASLAISGLQSEDEADYYCGTWDDSLNVWVFGGGTKLTVLG
unit_descriptor: nM
Kd: 480
//
binder: OMC.1.B6-hIgG4 (antibody, V domains shown) VH: EVQLLESGGGLVQPGGSLRLSCAASGFTFSSNYMSWVRQAPGKGLEWVSAISSSGGTIFYADSVKGRFTISRDNSKNTLYLQMNSLRAEDTAVYYCAKHKWNAVYYDGMDVWGQGTTVTVSS VL: QSVLTQPPSASGTPGQRVTISCSGSNSNIGRNLVNWYQQLPGTAPKLLIYTIDQRPSGVPDRFSGSKSGTSASLVISGLQSEDEADYYCAAWDGSLNAWVFGGGTKLTVLG
unit_descriptor: nM
Kd: 51
//
binder: A2-hIgG4 (antibody, V domains shown) VH: DVQLVESGGGLVQPGGSLRLSCAASGFTFDISAMSWVRQAPGKGLEWVSTISGSAYSTYYADSVKGRFTISRDNSKSTLYLQMNSLRAEDTAVYYCAREIFSDYWGLGTLVTVSS VL: QSVLTQPPSASGTPGQRVTISCSGSTSNIGRESVYWYQQLPGTAPKLLIYSNVQRPSGAPNRFSGSKSGTSASLAISGLQSEDEADYYCGTWDDSLNGWVFGGGTKLTVLG
unit_descriptor: nM
Kd: 589
//
binder: OMC.2.C6-hIgG4 (antibody, V domains shown) VH: EVQLLESGGGLVQPGGSLRLSCTASGFTFSSYEMQWVRQAPGKGLEWVLGITSSSSHIFYADSVKGRFTVSRDNSKNTLYLQMNSLRAEDTAVYYCTKDLNSYYGLDVWGQGTTVTVSS VL: QSVMTQPPSASGTPGQRVTISCSGSTSNLGNNYVSWYQHLPGTAPKLLIYGNDQRPSGVPDRFSGSKSGTSASLAISGLQSDDEADYYCSSWDASLNVWVFGGGTKLTVLG
unit_descriptor: nM
Kd: 13
//
binder: OMC476pE4-hIgG4 (antibody, V domains shown) VH: DVQLVESGGGVVRPGESLRLSCAASGFTFSTDAMGWVRQAPGEGLEWVSLISGSGYSTYYADSVKGRFTISRDNSKNTLYLQMNSLTAEDTAVYYCAKNSLAFFDYWGLGTLVTVSS VL: QSVLTQPPSASGTPGQRVTISCSGGSSNIGRESVNWYQQLPGTAPKLLIYSTDRRPSGVPDRFSGSKSGTSASLAISGLQSEDEADYYCGTWDNDLNGWVFGGGTKLTVLG
unit_descriptor: nM
Kd: 331
